Source: patent US12630515B2

Biological target: rat PGT (Rattus norvegicus, UniProt Q00910)
Assay: PGT inhibition: [3H]PGE2 uptake in MDCK cells stably transfected with rat PGT
Details: room temperature
Method: MDCK cells stably transfected with rat PGT ae seeded at 15-20% confluence on 96-well deepwell plates. The day on which the cells are seeded is considered day 1. PGE2 uptake experiments are conducted on day 4. All of the PGE2 uptake experiments are conducted at room temperature. […] 1.5 mL of scintillation solution is added to each well, and intracellular [^3H]PGE2 is counted via a Beta Counter. […]
Quick list: IC50 per entry.

[[record]]
compound = "CCOC(=O)C(CC)(CCC(=O)O)c1cncc(Nc2ccc(O)c(F)c2)n1 (racemic) [compound 37]"
measurement_kind = "IC50"
value_observed = "< 1 µM"


Per the record, CCC(CC)(CCC(=O)O)c1nnc(Nc2ccc(C)cc2)o1 [compound 33] has IC50 of < 10 µM

Per the record, CCOC(=O)C(CC)(CCC(=O)O)c1nc(Nc2ccccc2Cl)sc1Cl (single isomer, unassigned) [27 (enantiomer 1)] has IC50 of < 1 µM

Per the record, CCOC(=O)C(CC)(CCC(=O)O)c1csc(Nc2ccc(Cl)cc2Cl)n1 (racemic) [Cmp. 14a] has IC50 of < 1 µM

Per the record, CCC(CC)(CCC(=O)O)c1csc(Nc2cccc(OC)c2)n1 [Cmp. 9] has IC50 of < 10 µM

Per the record, CCOC(=O)C(CCC(=O)O)(CC1CC1)c1cncc(Nc2ccc(C)cc2)n1 (racemic) [compound 36] has IC50 of < 10 µM

Per the record, CCC(CC)(CCC(=O)O)c1nc(Nc2ccc(F)cc2F)sc1C [Cmp. 21] has IC50 of < 1 µM

* * *

Quick list: IC50 per entry.
Molecular target: rat PGT (Rattus norvegicus)
Assay: PGT inhibition: [3H]PGE2 uptake in MDCK cells stably transfected with rat PGT
Conditions: room temperature

[[record]]
compound = "CCOC(=O)C(CC)(CCC(=O)O)c1nc(Nc2ccc(Cl)cc2Cl)sc1C (racemic)"
value_observed = "< 1 µM"

[[record]]
compound = "CCOC(=O)C(CC)(CCC(=O)O)c1nc(Nc2ccc(F)cc2F)sc1C (racemic)"
value_observed = "< 10 µM"

[[record]]
compound = "CCC(CC)(CCC(=O)O)c1csc(-c2ccccc2)n1"
value_observed = "< 10 µM"

[[record]]
compound = "CCC(CC)(CCC(=O)O)c1cncc(Nc2ccc(F)cc2F)n1"
value_observed = "< 1 µM"

[[record]]
compound = "CCC(CCC(=O)O)(C(=O)OCC(C)C)c1cncc(Nc2ccc(C)cc2)n1 (racemic)"
value_observed = "< 10 µM"


Next compound, IC50 to be filled in.
Per the record, CCOC(=O)C(CC)(CCC(=O)O)c1nc(Nc2ccccc2Cl)sc1Cl (racemic) [Cmp. 27 (RS)] has IC50 of < 1 µM

* * *

Molecular target: rat PGT (Rattus norvegicus, UniProt Q00910)
Construct: expressed in transfected cells
Experiment: PGT inhibition: [3H]PGE2 uptake in MDCK cells stably transfected with rat PGT
Assay type: cell-based
Details: room temperature
Measurement Kind: IC50

Consider the following illustrative entries.
[[record]]
compound = "CCC(CC)(CCC(=O)O)c1nc(Nc2ccc(Cl)cc2Cl)sc1C [Cmp. 24]"
value_observed = "< 1 µM"

[[record]]
compound = "CCOC(=O)C(CC)(CCC(=O)O)c1csc(Nc2ccc(F)cc2F)n1 (racemic) [Cmp. 6]"
value_observed = "< 10 µM"

[[record]]
compound = "CCOC(=O)C(CC)(CCC(=O)O)c1csc(Nc2ccc(C)cc2)n1 (racemic) [Cmp. 3]"
value_observed = "< 20 µM"

[[record]]
compound = "CCOC(=O)C(CC)(CCC(=O)O)c1cncc(Nc2cc(F)ccc2F)n1 (racemic) [Cmp. 20]"
value_observed = "< 1 µM"

[[record]]
compound = "CCC(CC)(CCC(=O)O)c1csc(Nc2ccc(C(F)(F)F)cc2)n1 [compound 31]"
value_observed = "< 20 µM"

[[record]]
compound = "CCC(CC)(CCC(=O)O)c1coc(Nc2ccc(C)cc2)n1 [compound 32]"
value_observed = "< 100 µM"

[[record]]
compound = "CCC(CCC(=O)O)(COC)c1cncc(Nc2ccc(F)cc2F)n1 (racemic) [compound 38]"
value_observed = "< 10 µM"

[[record]]
compound = "CCC(CC)(CCC(=O)O)c1csc(Nc2ccccc2OC)n1 (racemic) [Cmp. 7]"
value_observed = "< 10 µM"

[[record]]
compound = "CCc1ncc(Nc2ccc(F)cc2F)nc1C(CC)(CC)CCC(=O)O [Cmp. 19]"
value_observed = "< 1 µM"

[[record]]
compound = "CCC(CC)(CCC(=O)O)c1csc(Nc2ccccc2Cl)n1 [Cmp. 8]"
value_observed = "< 10 µM"


Per the record, CCC(CC)(CCC(=O)O)c1cncc(Nc2ccccc2Cl)n1 [Cmp. 28] has IC50 of < 1 µM

Per the record, CCOC(=O)C(CC)(CCC(=O)O)c1nc(Nc2ccc(Cl)cc2Cl)sc1Cl (racemic) [compound 40] has IC50 of < 1 µM
